Species: Rattus norvegicus
Test: Open TG-GATES - Regimen: Single
Assay type: toxicity, organism-based, Sprague-Dawley
Parameters: regimen Single, gender Male, age 6 weeks
Settings: in vivo, po, 0 mg/kg, 6 h, tissue Plasma, route gavage, dose level Control
Measured TP accompanies every entry in the list below.

# MOLECULE, TP
measured = [
    ("CC(=O)Oc1cc(C(C)C)c(OCCN(C)C)cc1C [MOXISYLYTE]", "5.4 g/dL"),
    ("O=C(O)c1cccnc1 [NIACIN]", "5.5 g/dL"),
    ("Oc1ncnc2[nH]ncc12 [ALLOPURINOL]", "5.6 g/dL"),
    ("CC(C)(S)[C@@H](N)C(=O)O [PENICILLAMINE]", "5.3 g/dL"),
    ("CC(=N)S [THIOACETAMIDE]", "5.4 g/dL"),
    ("CCC(C)(C)C(=O)O[C@H]1C[C@@H](C)C=C2C=C[C@H](C)[C@H](CC[C@@H]3C[C@@H](O)CC(=O)O3)[C@H]21 [SIMVASTATIN]", "5.5 g/dL"),
    ("CCN1CCCC1CNC(=O)c1cc(S(N)(=O)=O)ccc1OC (stereo unspecified) [SULPIRIDE]", "5.2 g/dL"),
    ("C#C[C@]1(O)CC[C@H]2[C@@H]3CCc4cc(O)ccc4[C@H]3CC[C@@]21C [ETHINYL ESTRADIOL]", "5.4 g/dL"),
    ("Nc1nc(N)c2nc(-c3ccccc3)c(N)nc2n1", "5.3 g/dL"),
    ("CCSCC[C@H](N)C(=O)O [ETHIONINE]", "5.5 g/dL"),
    ("CN1C(=O)OC(C)(C)C1=O [TRIMETHADIONE]", "5.4 g/dL"),
    ("C[C@]12CCC(=O)C=C1CC[C@@H]1[C@@H]2CC[C@@]2(C)[C@H]1CC[C@]2(C)O [METHYLTESTOSTERONE]", "5.5 g/dL"),
    ("O=C(N[C@H](CO)[C@H](O)c1ccc([N+](=O)[O-])cc1)C(Cl)Cl [CHLORAMPHENICOL]", "5.5 g/dL"),
    ("CCc1oc2ccccc2c1C(=O)c1cc(I)c(O)c(I)c1 [BENZIODARONE]", "5.4 g/dL"),
    ("C[C@](N)(Cc1ccc(O)c(O)c1)C(=O)O [METHYLDOPA]", "5.6 g/dL"),
    ("CC(C)C(=O)Nc1ccc([N+](=O)[O-])c(C(F)(F)F)c1 [FLUTAMIDE]", "5.6 g/dL"),
]
